Tested on: Sv1v2 chimeric Env pseudotype
Assay: Inhibition of pseudotype infection by entry/fusion inhibitors, Sv1v2 Env
Type: cell-based, HIV-1
Conditions: HOS-CD4-CCR5 cells, inhibitor + virus 5–6 h at 37°C, luciferase at 2–3 days, non-linear regression, 95% confidence limits in parentheses
Source text: To produce Env-pseudotyped, luciferase-reporter viruses, 293T cells were co-transfected using calcium phosphate precipitation (ProFection Mammalian Transfection System, Promega, Madison, WI) with each Env expression vector and with the Env-deficient, pNL4-3-luc^+env^- provirus, developed by N. Landau by introducing a frameshift mutation in the env gene of pNL4-3-luc^+ [87]. […]
measured.metric: IC50 (nM)
Note: unit nM is implicit; provide only the numeric part.

Bench note: what IC50 did COc1ccnc2[nH]cc(C(=O)C(=O)N3CCN(C(=O)c4ccccc4)C[C@H]3C)c12 show?
1.2

====

System: Br (brain-derived) Env pseudotype
Assay type: cell-based, HIV-1
Details: HOS-CD4-CCR5 cells, inhibitor + virus 5–6 h at 37°C, luciferase at 2–3 days, non-linear regression, 95% confidence limits in parentheses
measured.metric: IC50 (nM)
Please reply with the bare figure in nM and do not write the unit itself.

Requested read-out: IC50. Entry: COc1ccnc2[nH]cc(C(=O)C(=O)N3CCN(C(=O)c4ccccc4)C[C@H]3C)c12
15

====

System: Bv1v3 chimeric Env pseudotype
Assay type: cell-based, HIV-1
Conditions: HOS-CD4-CCR5 cells, inhibitor + virus 5–6 h at 37°C, luciferase at 2–3 days, non-linear regression, 95% confidence limits in parentheses
measured.metric: IC50 (nM)
# output: bare number, implied unit nM

Given the entry COc1ccnc2[nH]cc(C(=O)C(=O)N3CCN(C(=O)c4ccccc4)C[C@H]3C)c12 , what IC50 was observed with Bv1v3 chimeric Env pseudotype?
8.2

====

Tested on: DS17 Env pseudotype
Assay type: cell-based, HIV-1
Details: HOS-CD4-CCR5 cells, inhibitor + virus 5–6 h at 37°C, luciferase at 2–3 days, non-linear regression, 95% confidence limits in parentheses
measured.metric: IC50 (nM)
# output: bare number, implied unit nM

For COc1ccnc2[nH]cc(C(=O)C(=O)N3CCN(C(=O)c4ccccc4)C[C@H]3C)c12 , what is its reported IC50?
41
